Assay: Plasma pharmacokinetics after oral Posiphen in CD-1 mice (LC-MS/MS)
Conditions: both, CD-1, mouse, in vivo, 65 mg/kg
Listed here are compounds together with their documented concentration at 12 h.
Write down the numeric answer in ng/mL and omit the unit.

Query string: Complete the entry with concentration at 12 h for CN1CC[C@]2(C)c3cc(OC(=O)Nc4ccccc4)ccc3NC12 (some centres unmarked) [N8, N8-norposiphen]
Result string: 0

Kindly consider the entry below.
Query string: Complete the entry with concentration at 12 h for CN1c2ccc(OC(=O)Nc3ccccc3)cc2[C@@]2(C)CCNC12 (some centres unmarked) [N1, N1-norposiphen]
Result string: 0

----------
Listed here are compounds together with their documented Cmax.
Experiment: Plasma pharmacokinetics after oral Posiphen in humans (LC-MS/MS)
Type: in vivo, human
Details: human, in vivo, po
Write down the numeric answer in ng/mL and omit the unit.

Recorded results for 3 compounds are shown here.
Query string: Complete the entry with Cmax for CN1c2ccc(OC(=O)Nc3ccccc3)cc2[C@@]2(C)CCNC12 (stereo partly shown) [N1, N1-norposiphen]
Result string: 24.9

Query string: Complete the entry with Cmax for C[C@]12CCNC1Nc1ccc(OC(=O)Nc3ccccc3)cc12 (stereo partly shown) [N1, N8, N1,N8-norposiphen]
Result string: 3.66

Query string: Complete the entry with Cmax for CN1CC[C@]2(C)c3cc(OC(=O)Nc4ccccc4)ccc3N(C)C12.O=C(O)C(O)C(O)C(=O)O (stereo partly shown) [Posiphen]
Result string: 117

Continuing:
Query string: Complete the entry with Cmax for CN1CC[C@]2(C)c3cc(OC(=O)Nc4ccccc4)ccc3NC12 (stereo partly shown) [N8, N8-norposiphen]
Result string: 30.4
